# Subject Of Test: Ephrin type-A receptor 2 (Homo sapiens)
# Measurement Parameters: at 0.1 µM
Endpoint Name: inhibition
Dear colleague, please send the value followed by its unit.

// known answers, use as guide
>  <Compound Structure String>
Nc1nccc(C#Cc2cncnc2Nc2ccc(OCc3cccc(F)c3)c(Cl)c2)n1

>  <inhibition>
0.65%

$$$$
>  <Compound Structure String>
O=C1Nc2ccc(-c3cccnc3)cc2C1=Cc1cc(Br)c(O)c(Br)c1

>  <inhibition>
2.12%

$$$$
>  <Compound Structure String>
COc1cccc(-n2nc(C)c3c(N/N=C(\C)c4ccncc4)ncnc32)c1

>  <inhibition>
-1.68%

$$$$
>  <Compound Structure String>
CCOc1nccc2c1nc(-c1nonc1N)n2CC

>  <inhibition>
2.57%

$$$$
>  <Compound Structure String>
CS(=O)(=O)CCNCc1nc(-c2ccc3ncnc(Nc4ccc(OCc5cccc(C(F)(F)F)c5)cc4)c3c2)cs1

>  <inhibition>
1.44%

$$$$

Item: Cc1ccc(O)cc1Nc1ccnc2ccc(S(C)(=O)=O)cc12 | inhibition: 91.3%

Item: ON=C1CCc2cc(-c3nc(C4CCNCC4)[nH]c3-c3ccncc3)ccc21 | inhibition: 1.25%

Item: Nc1ccc(C#Cc2cncnc2Nc2ccc(OCc3cccc(F)c3)c(Cl)c2)cc1 | inhibition: 0.44%

Item: N#Cc1cccc(Nc2nccc(-c3cnn4ncccc34)n2)c1 | inhibition: 2.26%

Item: CC(C)c1ccc(Nc2nccc(-c3cnn4ncccc34)n2)cc1 | inhibition: -0.98%

---

# Subject Of Test: Ephrin type-B receptor 4 (Homo sapiens)
# Measurement Parameters: at 1 µM
// Not fulfilled strictly below 3% in inhibition; Fulfilled otherwise

The examples below pair each entry with its known result.
>  <Compound>
O=C1Nc2ccccc2/C1=C/Nc1ccc2[nH]c(=O)[nH]c2c1

>  <Answer Label>
Fulfilled

$$$$
>  <Compound>
COc1cccc(-n2nc(C)c3c(N/N=C(\C)c4ccncc4)ncnc32)c1

>  <Answer Label>
Not fulfilled

$$$$
>  <Compound>
N#Cc1cccc(Nc2nccc(-c3cnn4ncccc34)n2)c1

>  <Answer Label>
Fulfilled

$$$$
>  <Compound>
CCn1c(-c2nonc2N)nc2c(C#CC(C)(C)O)nc(OCCNC)cc21

>  <Answer Label>
Not fulfilled

$$$$
>  <Compound>
CN(C)CCCn1c(-c2nonc2N)nc2cnccc21

>  <Answer Label>
Not fulfilled

$$$$
>  <Compound>
Cc1ccc2c(-c3ccnc(Nc4ccc5c(c4)OCCO5)n3)c(-c3ccc(C(F)(F)F)cc3)nn2n1

>  <Answer Label>
Not fulfilled

$$$$

Entry Cc1nc(-c2ccccc2)n2nc(NCCCN3CCOCC3)ncc12 : is its inhibition no less than 3%?
Fulfilled

Entry Nc1ccc(C#Cc2cncnc2Nc2ccc(OCc3cccc(F)c3)c(Cl)c2)cc1 : is its inhibition no less than 3%?
Not fulfilled

Entry COc1ccc(-c2nn3ncccc3c2-c2ccnc(Nc3cccc(C(F)(F)F)c3)n2)cc1 : is its inhibition no less than 3%?
Fulfilled

Entry Nc1nccc(C#Cc2cncnc2Nc2ccc(OCc3cccc(F)c3)c(Cl)c2)n1 : is its inhibition no less than 3%?
Not fulfilled

Entry CCCN1CCCC(c2ccc(Nc3nc(Nc4cc(F)ccc4C(N)=O)c4cc[nH]c4n3)c(OC)c2)C1 (stereo unspecified) : is its inhibition no less than 3%?
Fulfilled

Entry ON=C1CCc2cc(-c3nc(C4CCNCC4)[nH]c3-c3ccncc3)ccc21 : is its inhibition no less than 3%?
Not fulfilled

Entry Nc1nccc(-c2c(-c3ccc(F)cc3)nn3cc(C(F)(F)F)ccc23)n1 : is its inhibition no less than 3%?
Not fulfilled

Entry c1ccc(Cc2nc3ccc(Nc4ncnc5ccccc45)cc3[nH]2)cc1 : is its inhibition no less than 3%?
Not fulfilled

Entry COC(=O)c1ccc2c(c1)C(=Cc1cc(Br)c(O)c(Br)c1)C(=O)N2 : is its inhibition no less than 3%?
Fulfilled

Entry CC(C)c1ccc2c(c1)NC(=O)/C2=N/Nc1ccc(S(N)(=O)=O)cc1 : is its inhibition no less than 3%?
Not fulfilled

Entry CN(C)C(=O)O[C@H]1CN[C@H](C#Cc2cc3ncnc(Nc4ccc(OCc5cccc(F)c5)c(Cl)c4)c3s2)C1 : is its inhibition no less than 3%?
Fulfilled

Entry Cc1cc(-c2ccccn2)cc(C)c1/C=C/c1cncc(-c2nn[nH]n2)c1 : is its inhibition no less than 3%?
Fulfilled

Entry O=C1Nc2ccc(-c3cccnc3)cc2C1=Cc1cc(Br)c(O)c(Br)c1 : is its inhibition no less than 3%?
Fulfilled
